Origin of measurements: ChEMBL document CHEMBL1933036

target: B1 bradykinin receptor (Homo sapiens, UniProt P46663)
Sequence (P46663 whole entry): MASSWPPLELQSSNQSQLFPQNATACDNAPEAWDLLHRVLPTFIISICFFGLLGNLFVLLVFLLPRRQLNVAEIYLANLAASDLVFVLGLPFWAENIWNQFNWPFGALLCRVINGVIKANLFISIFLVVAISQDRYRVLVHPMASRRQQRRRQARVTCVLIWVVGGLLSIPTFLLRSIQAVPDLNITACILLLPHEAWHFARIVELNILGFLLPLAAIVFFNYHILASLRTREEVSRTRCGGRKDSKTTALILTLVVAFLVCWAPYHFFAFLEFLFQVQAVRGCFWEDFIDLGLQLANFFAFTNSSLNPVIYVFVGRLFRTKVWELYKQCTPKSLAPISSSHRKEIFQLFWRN
The following compounds are listed with their measured Ki values.
Please provide the amount together with its unit, number first.

- smiles.code: "O=C(N[C@H]1CCCc2cc(CN3CCCCC3)ccc21)c1ccc(-c2coc3cc(Cl)ccc3c2=O)cc1"
  target: "B1 bradykinin receptor (Homo sapiens, UniProt P46663)"
  recorded.result: "42 nM"
- smiles.code: "O=C(N[C@H]1CCCc2cc(CN3CCCCC3)ccc21)c1ccc(-c2coc3cccc(Cl)c3c2=O)cc1"
  target: "B1 bradykinin receptor (Homo sapiens, UniProt P46663)"
  recorded.result: "4 nM"

(Q) Fill in reported Ki for this entry: `O=C(N[C@@H]1CCCc2cc(CN3CCCCC3)ccc21)c1cccc(-c2coc3cccc(Cl)c3c2=O)c1`
(A) 29 nM

(Q) Specify reported Ki for the compound shown: `O=C(N[C@H]1CCCc2cc(CN3CCCCC3)ccc21)c1ccc(-c2coc3cccc(F)c3c2=O)cc1`
(A) 17 nM

(Q) Answer with reported Ki of `Cc1cccc2occ(-c3ccc(C(=O)N[C@H]4CCCc5cc(CN6CCCCC6)ccc54)cc3)c(=O)c12`
(A) 15 nM

(Q) In one line, give reported Ki of the entry `Cc1nn(-c2ccc(C(=O)N[C@H]3CCCc4cc(CN5CCCCC5)ccc43)cc2)c(=O)c2ccccc12` .
(A) 43 nM

---

target: UniProtKB P46663
Sequence (P46663 whole entry): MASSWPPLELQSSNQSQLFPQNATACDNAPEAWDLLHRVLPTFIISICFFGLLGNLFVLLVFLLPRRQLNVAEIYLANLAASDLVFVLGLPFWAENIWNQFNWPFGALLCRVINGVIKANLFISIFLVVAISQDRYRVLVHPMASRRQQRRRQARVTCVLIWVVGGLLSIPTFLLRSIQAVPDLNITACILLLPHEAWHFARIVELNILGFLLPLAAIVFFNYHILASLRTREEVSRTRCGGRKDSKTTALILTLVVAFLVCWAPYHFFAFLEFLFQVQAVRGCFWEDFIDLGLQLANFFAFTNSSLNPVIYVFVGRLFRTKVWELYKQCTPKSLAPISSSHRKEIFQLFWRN
assay.protocol: Antagonist activity at human B1 bradykinin receptor expressed in CHO cells by aqueorin-based calcium flux assay
quantity.measured: pIC50
Just so you know, pIC50 here is -log10 of the concentration in molar units; reply with that number alone.

Worked set:
- smiles.code: "Cc1nn(-c2cccc(C(=O)N[C@@H]3CCCc4cc(CN5CCCCC5)ccc43)c2)c(=O)c2ccccc12"
  recorded.result: 5.47
- smiles.code: "O=C(N[C@@H]1CCCc2cc(CN3CCCCC3)ccc21)c1cccc(-c2coc3ccccc3c2=O)c1"
  recorded.result: 6.95
- smiles.code: "O=C(N[C@@H]1CCCc2cc(CN3CCCCC3)ccc21)c1cccc(-c2coc3cc(Cl)ccc3c2=O)c1"
  recorded.result: 6.10
- smiles.code: "O=C(N[C@@H]1CCCc2cc(CN3CCCCC3)ccc21)c1cccc(-c2coc3ccc(F)cc3c2=O)c1"
  recorded.result: 7.11
- smiles.code: "O=C(N[C@@H]1CCCc2cc(CN3CCCCC3)ccc21)c1cccc(-c2coc3cccc(Cl)c3c2=O)c1"
  recorded.result: 7.77

Could you now consider this next compound?
(Q) Identify measured pIC50 obtained with UniProtKB P46663 for `O=C(N[C@H]1CCCc2cc(CN3CCCCC3)ccc21)c1ccc(-c2coc3cccc(Cl)c3c2=O)cc1` .
(A) 8.40

---

target: B1 bradykinin receptor (Oryctolagus cuniculus, UniProt P48748)
Sequence (P48748 whole entry): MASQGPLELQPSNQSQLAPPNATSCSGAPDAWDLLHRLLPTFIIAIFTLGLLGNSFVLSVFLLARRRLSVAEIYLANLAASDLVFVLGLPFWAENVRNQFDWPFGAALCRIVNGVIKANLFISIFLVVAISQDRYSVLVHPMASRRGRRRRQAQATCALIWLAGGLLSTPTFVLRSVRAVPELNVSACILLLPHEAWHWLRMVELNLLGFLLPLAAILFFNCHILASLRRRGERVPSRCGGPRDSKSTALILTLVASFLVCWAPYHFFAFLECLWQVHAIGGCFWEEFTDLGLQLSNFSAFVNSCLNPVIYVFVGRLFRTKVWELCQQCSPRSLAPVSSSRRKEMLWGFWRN
assay.protocol: Antagonist activity at rabbit B1 bradykinin receptor expressed in CHO cells
Listed below: pIC50 values for each entry.
The read-out pIC50 is expressed as -log10 of concentration in moles per litre.

Completed entries (count: 5):
- smiles.code: "O=C(N[C@@H]1CCCc2cc(CN3CCCCC3)ccc21)c1cccc(-c2coc3ccc(F)cc3c2=O)c1"
  recorded.result: 6.41
- smiles.code: "O=C(N[C@H]1CCCc2cc(CN3CCCCC3)ccc21)c1ccc(-c2coc3cccc(Cl)c3c2=O)cc1"
  recorded.result: 7.52
- smiles.code: "O=C(N[C@H]1CCCc2cc(CN3CCCCC3)ccc21)c1ccc(-c2coc3ccccc3c2=O)cc1"
  recorded.result: 6.91
- smiles.code: "O=C(N[C@@H]1CCCc2cc(CN3CCCCC3)ccc21)c1cccc(-c2coc3cccc(Cl)c3c2=O)c1"
  recorded.result: 6.61
- smiles.code: "Cc1cccc2occ(-c3ccc(C(=O)N[C@H]4CCCc5cc(CN6CCCCC6)ccc54)cc3)c(=O)c12"
  recorded.result: 6.86

(Q) Please give the documented pIC50 of `Cc1nn(-c2ccc(C(=O)N[C@H]3CCCc4cc(CN5CCCCC5)ccc43)cc2)c(=O)c2ccccc12`
(A) 7.01

---

Form field: IC50 (one value per entry).
target: B1 bradykinin receptor (Homo sapiens, UniProt P46663)
assay.protocol: Antagonist activity at human B1 bradykinin receptor expressed in CHO cells by aqueorin-based calcium flux assay

Examples from the recorded data:
- smiles.code: "O=C(N[C@H]1CCCc2cc(CN3CCCCC3)ccc21)c1ccc(-c2coc3c(Cl)cccc3c2=O)cc1"
  recorded.result: "186 nM"
- smiles.code: "Cc1cccc2occ(-c3ccc(C(=O)N[C@H]4CCCc5cc(CN6CCCCC6)ccc54)cc3)c(=O)c12"
  recorded.result: "66 nM"

(Q) Write down IC50 measured for item `O=C(N[C@H]1CCCc2cc(CN3CCCCC3)ccc21)c1ccc(-c2coc3cccc(F)c3c2=O)cc1`
(A) 12 nM

(Q) Look up IC50 of `Cc1nn(-c2ccc(C(=O)N[C@H]3CCCc4cc(CN5CCCCC5)ccc43)cc2)c(=O)c2ccccc12` and report it.
(A) 7 nM

---

assay.protocol: Oral bioavailability in rat at 5 mg/kg
Assay type: ADME, organism-based
run.conditions: in vivo
quantity.measured: bioavailability

(Q) Find the measured bioavailability of `O=C(N[C@H]1CCCc2cc(CN3CCCCC3)ccc21)c1ccc(-c2coc3cccc(Cl)c3c2=O)cc1` and report it.
(A) 43.6%

---

target: B1 bradykinin receptor (Oryctolagus cuniculus, UniProt P48748)
assay.protocol: Antagonist activity at rabbit B1 bradykinin receptor expressed in CHO cells
Measured pIC50, listed per entry for reference.
The meaning of pIC50 here: minus log10 of the concentration in molar units.

- smiles.code: "O=C(N[C@H]1CCCc2cc(CN3CCCCC3)ccc21)c1ccc(-c2coc3cccc(F)c3c2=O)cc1"
  pIC50: 7.62

Now examine the next entry.
(Q) Entry `O=C(N[C@@H]1CCCc2cc(CN3CCCCC3)ccc21)c1cccc(-c2coc3ccccc3c2=O)c1` needs its pIC50 filled in; supply it.
(A) 6.32

---

assay.protocol: Oral bioavailability in rat at 2 mg/kg
Format: ADME, organism-based
run.conditions: in vivo
quantity.measured: bioavailability (%)
Provide only the numeric value, understood in %.

(Q) Fill in bioavailability for record `O=C(N[C@H]1CCCc2cc(CN3CCCCC3)ccc21)c1ccc(-c2coc3cccc(F)c3c2=O)cc1`
(A) 27.9

---

target: B1 bradykinin receptor (Oryctolagus cuniculus)
assay.protocol: Antagonist activity at rabbit B1 bradykinin receptor expressed in CHO cells
quantity.measured: IC50

Solved entries:
- smiles.code: "O=C(N[C@H]1CCCc2cc(CN3CCCCC3)ccc21)c1ccc(-c2coc3c(Cl)cccc3c2=O)cc1"
  recorded.result: "> 4 µM"
- smiles.code: "O=C(N[C@@H]1CCCc2cc(CN3CCCCC3)ccc21)c1cccc(-c2coc3ccc(Cl)cc3c2=O)c1"
  recorded.result: "> 0.16 µM"
- smiles.code: "O=C(N[C@H]1CCCc2cc(CN3CCCCC3)ccc21)c1ccc(-c2coc3cc(Cl)ccc3c2=O)cc1"
  recorded.result: "> 0.8 µM"
- smiles.code: "O=C(N[C@@H]1CCCc2cc(CN3CCCCC3)ccc21)c1cccc(-c2coc3c(Cl)cccc3c2=O)c1"
  recorded.result: "> 0.8 µM"

Here is another compound to look at.
(Q) Write down IC50 measured for item `O=C(N[C@@H]1CCCc2cc(CN3CCCCC3)ccc21)c1cccc(-c2coc3cc(Cl)ccc3c2=O)c1`
(A) > 0.8 µM

---

Below is a list of entries, each paired with its recorded pIC50 value.
target: B1 bradykinin receptor (Homo sapiens, UniProt P46663)
assay.protocol: Antagonist activity at human B1 bradykinin receptor expressed in CHO cells by aqueorin-based calcium flux assay
Type: functional, cell-based
Lab note: report pIC50 as minus log10 of the concentration in molar units, number only.

- smiles.code: "O=C(N[C@@H]1CCCc2cc(CN3CCCCC3)ccc21)c1cccc(-c2coc3c(Cl)cccc3c2=O)c1"
  target: "B1 bradykinin receptor (Homo sapiens, UniProt P46663)"
  pIC50: 6.73
- smiles.code: "O=C(N[C@@H]1CCCc2cc(CN3CCCCC3)ccc21)c1cccc(-c2coc3ccc(Cl)cc3c2=O)c1"
  target: "B1 bradykinin receptor (Homo sapiens, UniProt P46663)"
  pIC50: 6.55

(Q) GET pIC50 | system: B1 bradykinin receptor (Homo sapiens, UniProt P46663) | item: `O=C(N[C@H]1CCCc2cc(CN3CCCCC3)ccc21)c1ccc(-c2coc3cc(Cl)ccc3c2=O)cc1`
(A) 6.58
